Study the reported Ki values for Rho-associated protein kinase 1 (Homo sapiens, UniProt Q13464) given below; they originate from different publications.

1) CNCC(Cc1ccc(Oc2ccnc3[nH]cc(C)c23)cc1)C(=O)N1CCN(Cc2ccccc2)CC1 (stereo not shown) ... < 3 nM
2) O=C(Cc1cc2c(cc1Cl)OCO2)Nc1nc(-c2ccnc(NCc3ccccc3)c2)cs1 ... 100 to 1000 nM
3) N[C@H](Cc1ccc(Oc2ccnc3[nH]ccc23)cc1)C(=O)NC1CCOCC1 ... > 30 nM

Next compound, please.
Task: Requested read-out: Ki. Entry: Nc1cc(-c2csc(NC(=O)Cc3ccc(F)cc3F)n2)ccn1
Result: < 100 nM

* * *

Literature-derived pKi for Rho-associated protein kinase 1 (Homo sapiens, UniProt Q13464) follows.
pKi: −log10 of the molar value.

# count of solved cases: 6
1. Cc1c[nH]c2nccc(Oc3ccc(C[C@H](N)C(=O)N4CC[C@H](N(C)C)C4)cc3F)c12 ... > 8.52
2. Cc1c[nH]c2nccc(Oc3ccc(C[C@H](N)C(=O)N4CCN(C(=O)C5CCCCC5)CC4)cc3F)c12 ... > 8.52
3. COc1cnc(-c2c[nH]c3ncc(Cl)cc23)nc1N[C@@H](C)C(=O)NCC(F)(F)F ... 5.30 to 6.30
4. CN1CCN(CCCOc2cccc(CC(=O)Nc3nc(-c4ccnc(Cl)c4)cs3)c2)CC1 ... > 7.00
5. CC1(C(=O)Nc2cc(-c3c[nH]c4nccc(Oc5ccc6c(c5)CNCC6)c34)ccn2)CC1 ... 7.52 to 8.52
6. c1ccc(CNc2cc(-c3c[nH]c4nccc(Oc5ccc6c(c5)CNCC6)c34)on2)cc1 ... 7.52 to 8.52

Task: Return reported pKi; argument: Cc1c[nH]c2nccc(Oc3ccc(C[C@H](N)C(=O)NC4(CCO)CCCCC4)cc3F)c12
Result: > 8.52

Task: Another compound: c1ccc(CNc2cccc(-c3c[nH]c4nccc(Oc5ccc6c(c5)CNCC6)c34)n2)cc1
Result: < 7.52

* * *

Study the reported Ki values for Rho-associated protein kinase 1 (Homo sapiens) given below; they originate from different publications.

1) CC1=C(C(=O)Nc2ccc3cnccc3c2)C(c2ccc(C(F)(F)F)c(F)c2)n2nc(C(=O)NC3CC3)cc2N1 (stereo not shown) ... < 0.05 µM

Task: State the recorded Ki for this entry: c1ccc(CCNc2cc(-c3c[nH]c4nccc(Oc5ccc6c(c5)CNCC6)c34)ncn2)cc1
Result: < 0.003 µM

Task: Can you check CNC(=O)[C@H](CO)Nc1nc(-c2c[nH]c3ncc(Cl)cc23)ncc1F next?
Result: 0.5 to 5 µM

Task: // same read-out, input: Clc1cnc2[nH]cc(-c3cccc(NC4CCCCC4)n3)c2c1
Result: 0.5 to 5 µM

* * *

Please find below Ki measurements for Rho-associated protein kinase 1 (Homo sapiens, UniProt Q13464), combined from several publications.

1) OC[C@H](Nc1cccc(-c2c[nH]c3ncc(Cl)cc23)n1)c1ccccc1 ... 500 to 5000 nM

Task: Ki for N[C@@H](Cc1ccc(Oc2ccnc3[nH]cc(Br)c23)c(F)c1)C(=O)N1CCN(Cc2ccccc2)CC1 ?
Result: < 3 nM

Task: Then this compound: CC1=C(C(=O)Nc2ccc3[nH]ncc3c2)C(c2ccc(F)cc2)n2nc(C(C)(C)C)cc2N1 (centres unmarked)
Result: < 50 nM

Task: Thanks! And CCOC(=O)c1cc2n(n1)C(c1ccc(C(F)F)c(F)c1)C(C(=O)Nc1ccc3cnccc3c1)=C(C)N2 (centres unmarked) ?
Result: < 50 nM

Task: # repeat for CCN(CC)S(=O)(=O)c1cccc(CC(=O)Nc2nnc(-c3c[nH]c4ncccc34)s2)c1
Result: 500 to 5000 nM

Task: // same read-out, input: Cc1c[nH]c2nccc(Oc3ccc(C[C@@H](C(=O)NC4CCCCC4)N(C)C)cc3)c12
Result: < 3 nM

Task: # iterate: CN1CCC(NC(=O)[C@H](N)Cc2ccc(Oc3ccnc4[nH]ccc34)cc2)CC1
Result: > 30 nM

Task: Param item: Cn1cc(-c2c[nH]c3nccc(Oc4ccc5c(c4)CNCC5)c23)cn1
Result: < 3 nM

* * *

Several reports have described Ki for Rho-associated protein kinase 1 (Homo sapiens, UniProt Q13464); a selection of those results is presented here.

Examples from the recorded data:
1) Cc1c[nH]c2nccc(Oc3ccc(CC(CN)c4nc(CCc5ccccc5)no4)cc3F)c12 (stereo not shown) ... < 0.005 µM
2) CC(=O)N1[C@H](C)CN(c2cccc(-c3c[nH]c4ncc(NC(=O)c5cscn5)cc34)n2)C[C@@H]1C ... 0.5 to 5 µM
3) Cc1cccc(S(=O)(=O)C2CCN(C(=O)[C@@H](N)Cc3ccc(Oc4ccnc5[nH]cc(C)c45)c(F)c3)CC2)c1 ... < 0.003 µM
4) O=C(Cc1cccc(S(=O)(=O)N2CCOCC2)c1)Nc1nnc(-c2c[nH]c3ncccc23)s1 ... 0.5 to 5 µM
5) Cc1c[nH]c2nccc(Oc3ccc(C[C@H](N)C(=O)N4CCN(Cc5cncnc5)CC4)cc3F)c12 ... < 0.003 µM
6) COC(=O)Nc1cnc2[nH]cc(-c3cccc(N4C[C@@H](C)N(C(C)=O)[C@@H](C)C4)n3)c2c1 ... 0.5 to 5 µM
7) CN(C)CCNC(=O)[C@@H](N)Cc1ccc(Oc2ccnc3[nH]ccc23)cc1 ... > 0.03 µM
8) CC(=O)N1[C@H](C)CN(c2cccc(-c3c[nH]c4ncc(NC(=O)c5nc[nH]n5)cc34)n2)C[C@@H]1C ... 0.5 to 5 µM

Task: Reported Ki for Nc1cc(-c2csc(NC(=O)Cc3ccccc3)n2)ccn1 : what is it?
Result: < 0.1 µM

Task: Please give the result for N[C@@H](Cc1ccc(Oc2ccnc3[nH]cc(-c4cccnc4)c23)cc1)C(=O)N1CCN(Cc2ccccc2)CC1 too.
Result: < 0.003 µM

Task: Here is the next molecule: C[C@H](Nc1nc(-c2c[nH]c3ncc(Cl)cc23)ncc1C(F)(F)F)c1ccc(F)cc1
Result: 0.5 to 5 µM

Task: Please give the result for CS(=O)(=O)Nc1ccc(-c2cnc3[nH]cc(-c4ccc(C(N)=O)cc4)c3c2)cc1 too.
Result: < 0.5 µM

Task: And then CN1CCN(CCCOc2ccc(CC(=O)Nc3cc(-c4ccnc(Cl)c4)cs3)c(Cl)c2)CC1 , what is it?
Result: < 0.1 µM

Task: What do you get for Cc1c[nH]c2nccc(Oc3ccc(CC(N)C(=O)Nc4ccncc4)cc3F)c12 (stereo not shown) ?
Result: < 0.003 µM

Task: Do the same for COCc1cc2n(n1)C(c1ccc3cc[nH]c3c1)C(C(=O)Nc1ccc3cnccc3c1)=C(C)N2 (stereo not shown) please
Result: < 0.05 µM

Task: Same question, O=C(NCc1cccc(S(=O)(=O)N2CCOCC2)c1)c1cc(-c2c[nH]c3ncccc23)cs1 this time
Result: < 0.5 µM

* * *

pKi: −log10 of the molar value.
What follows is literature data on pKi for Rho-associated protein kinase 1 (Homo sapiens, UniProt Q13464).

Take a look at these entries with their results.
1) Cc1c[nH]c2nccc(Oc3ccc(C[C@H](N)C(=O)N4CCN(Cc5cnccn5)CC4)cc3F)c12 ... > 8.52
2) N[C@@H](Cc1ccc(Oc2ccnc3[nH]cc(Br)c23)cc1)C(=O)NC1CCCCC1 ... > 8.52
3) CC(=O)N1[C@H](C)CN(c2cccc(-c3c[nH]c4ncc(NC(=O)c5cnccn5)cc34)n2)C[C@@H]1C ... 5.30 to 6.30
4) O=C(Cc1cccc(OCCCN2CCNCC2)c1)Nc1cc(-c2ccnc(Cl)c2)cs1 ... > 7.00
5) CCOc1cc(-c2csc(NC(=O)Cc3ccccc3Cl)n2)ccn1 ... < 6.00
6) Cc1c[nH]c2nccc(Oc3ccc(C4CNC4)cc3)c12 ... 7.30 to 8.30
7) CC(=O)Nc1cnc2[nH]cc(-c3cccc(N4C[C@@H](C)N(C(C)=O)[C@@H](C)C4)n3)c2c1 ... 5.30 to 6.30
8) NC(Cc1ccc(Oc2ccnc3[nH]ccc23)cc1)C(=O)Nc1ccc(C(F)(F)F)cc1 (stereo not shown) ... 7.52 to 8.52

Task: Give recorded pKi with Rho-associated protein kinase 1 (Homo sapiens, UniProt Q13464) for the following molecule: CC1=C(C(=O)Nc2ccc3cnccc3c2)C(c2ccc(C(F)(F)F)c(F)c2)n2nc(C(=O)N3C[C@H]4CN(C)C[C@H]4C3)cc2N1 (stereo partly shown)
Result: > 7.30

Task: Param item: CC(=O)N1[C@H](C)CN(c2nc(-c3c[nH]c4ncc(Cl)cc34)cc(C)c2C#N)C[C@@H]1C
Result: 5.30 to 6.30

Task: Moving on to CN1CCN(c2cccc(-c3c[nH]c4ncc(Cl)cc34)n2)CC1
Result: 5.30 to 6.30

Task: What about this molecule? OCCNc1cccc(-c2c[nH]c3ncc(Cl)cc23)n1
Result: 5.30 to 6.30

Task: Now consider CC1=C(C(=O)Nc2ccc3cnccc3c2)C(C2CCC(C(F)(F)F)CC2)n2nc(CN(C)C)cc2N1 (stereo not shown) and answer again.
Result: > 7.30

Task: Again, but for CC(C)(C)OC(=O)N1CCC(CCCOc2cccc(CC(=O)Nc3nc(-c4c[nH]c5ncccc45)cs3)c2)CC1
Result: > 6.30

Task: Please answer likewise for N[C@@H](Cc1ccc(Oc2ccnc3[nH]cc(-c4ccncc4)c23)cc1)C(=O)N1CCN(Cc2ccccc2)CC1
Result: > 8.52

Task: Then what about the molecule CC(C)c1cnc(-c2c[nH]c3ncc(Cl)cc23)nc1N[C@@H](C)C(=O)NCC(F)(F)F ?
Result: 5.30 to 6.30
